Could you please report measured z-score for the items listed next?
- assay-remarks: CREB reporter modulators without forskolin, primary screen, cell-based, PC12, CRE-LacZ reporter, unstimulated (AID 1145)
- experimental-context: no forskolin, luminescence, 4.5 h, higher = more signal, called active from +8 up or from −8 down
Form: value (number only, do not type unit).

The value of z-score measured for the compound C=CC[C@]1(C(=O)N(C)C)COC(c2ccc(OCCCO)cc2)=N1 turned out to be 2.5

What the record says about Cc1ccc(S[C@]2(C(=O)NCCCN(C)C)CC(=O)N(Cc3ccccc3Cl)[C@@H]2c2ccc(CO)cc2I)cc1 : z-score is 0.0924

The reported z-score of the compound COc1ccccc1CN1C(=O)c2ccccc2[C@@H](C(=O)NCCCN(C)C)[C@@H]1c1ccc(CO)cc1 was 0.531
